Where do these numbers come from? They come from the supplement of paper PMC11246515.

Assay: total protein half-life in vivo (active degradation + dilution); higher = more stable protein
Details: wild type E. coli NCM3722; growth: N-lim chemostat; doubling time 12 h
MEASURED METRIC: total protein half-life in vivo (h)
Record the value in h, omitting the unit from your answer.

Ask | Requested field: total protein half-life in vivo. Item: MKRAPLITGLLLISTSCAYASSGGCGADSTSGATNYSSVVDDVTVNQTDNVTGREFTSATLSSTNWQYACSCSAGKAVKLVYMVSPVLTTTGHQTGYYKLNDSLDIKTTLQANDIPGLTTDQVVSVNTRFTQIKNNTVYSAATQTGVCQGDTSRYGPVNIGANTTFTLYVTKPFLGSMTIPKTDIAVIKGAWVDGMGSPSTGDFHDLVKLSIQGNLTAPQSCKINQGDVIKVNFGFINGQKFTTRNAMPDGFTPVDFDITYDCGDTSKIKNSLQMRIDGTTGVVDQYNLVARRRSSDNVPDVGIRIENLGGGVANIPFQNGILPVDPSGHGTVNMRAWPVNLVGGELETGKFQGTATITVIVR
Reply | 14

###

Experiment: total protein half-life in vivo (active degradation + dilution); higher = more stable protein
Conditions: wild type E. coli NCM3722; growth: C-lim chemostat; doubling time 3 h
MEASURED METRIC: total protein half-life in vivo (h)
Return type: number; implicit unit h.

Ask | Endpoint output: total protein half-life in vivo of MEISFTRVALLAAALFFVGCDQKPQPAKTHATEVTVLEGKTMGTFWRASIPGIDAKRSAELKEKIQTQLDADDQLLSTYKKDSALMRFNDSQSLSPWPVSEAMADIVTTSLRIGAKTDGAMDITVGPLVNLWGFGPEQQPVQIPSQEQIDAMKAKTGLQHLTVINQSHQQYLQKDLPDLYVDLSTVGEGYAADHLARLMEQEGISRYLVSVGGALNSRGMNGEGLPWRVAIQKPTDKENAVQAVVDINGHGISTSGSYRNYYELDGKRLSHVIDPQTGRPIEHNLVSVTVIAPTALEADAWDTGLMVLGPEKAKEVVRREGLAVYMITKEGDSFKTWMSPQFKSFLVSEKN [P0AB85] . Value?
Reply | 2.9

###

Would you kindly list total protein half-life in vivo for each of these sequences?
Assay: total protein half-life in vivo (active degradation + dilution); higher = more stable protein
Settings: E. coli NCM3722 delta-clpP delta-lon delta-hslV; growth: N-lim chemostat; doubling time 6 h
The reply should read as a number followed by its unit.

Ask | What value of total protein half-life in vivo has been recorded for this entry: MILTDPEWQAVLLSLKVSSLAVLFSLPFGIFFAWLLVRCTFPGKALLDSVLHLPLVLPPVVVGYLLLVSMGRRGFIGERLYDWFGITFAFSWRGAVLAAAVMSFPLMVRAIRLALEGVDVKLEQAARTLGAGRWRVFFTITLPLTLPGIIVGTVLAFARSLGEFGATITFVSNIPGETRTIPSAMYTLIQTPGGESGAARLCIISIALAMISLLISEWLARISRERAGR [P0AF01]
Reply | 4.97 h

Ask | Entry under review: MTIKLIVGLANPGAEYAATRHNAGAWFVDLLAERLRAPLREEAKFFGYTSRVTLGGEDVRLLVPTTFMNLSGKAVAAMASFFRINPDEILVAHDELDLPPGVAKFKLGGGHGGHNGLKDIISKLGNNPNFHRLRIGIGHPGDKNKVVGFVLGKPPVSEQKLIDEAIDEAARCTEMWFTDGLTKATNRLHAFKAQ [P0A7D1] . Reported total protein half-life in vivo?
Reply | 5.13 h

Ask | Reported total protein half-life in vivo for MQEYTNHSDTTFALRNISFRVPGRTLLHPLSLTFPAGKVTGLIGHNGSGKSTLLKMLGRHQPPSEGEILLDAQPLESWSSKAFARKVAYLPQQLPPAEGMTVRELVAIGRYPWHGALGRFGAADREKVEEAISLVGLKPLAHRLVDSLSGGERQRAWIAMLVAQDSRCLLLDEPTSALDIAHQVDVLSLVHRLSQERGLTVIAVLHDINMAARYCDYLVALRGGEMIAQGTPAEIMRGETLEMIYGIPMGILPHPAGAAPVSFVY : what is it?
Reply | 5.18 h
